Molecular target: ER in rat uterine cytosol (ERα) (Rattus norvegicus, UniProt P06211)
Construct: The uterus was removed and homogenized in ice-cold TEGDMo buffer; from tissue; host or cells: uterine cytosol of castrated female Sprague Dawley rats
Sequence (P06211 whole entry): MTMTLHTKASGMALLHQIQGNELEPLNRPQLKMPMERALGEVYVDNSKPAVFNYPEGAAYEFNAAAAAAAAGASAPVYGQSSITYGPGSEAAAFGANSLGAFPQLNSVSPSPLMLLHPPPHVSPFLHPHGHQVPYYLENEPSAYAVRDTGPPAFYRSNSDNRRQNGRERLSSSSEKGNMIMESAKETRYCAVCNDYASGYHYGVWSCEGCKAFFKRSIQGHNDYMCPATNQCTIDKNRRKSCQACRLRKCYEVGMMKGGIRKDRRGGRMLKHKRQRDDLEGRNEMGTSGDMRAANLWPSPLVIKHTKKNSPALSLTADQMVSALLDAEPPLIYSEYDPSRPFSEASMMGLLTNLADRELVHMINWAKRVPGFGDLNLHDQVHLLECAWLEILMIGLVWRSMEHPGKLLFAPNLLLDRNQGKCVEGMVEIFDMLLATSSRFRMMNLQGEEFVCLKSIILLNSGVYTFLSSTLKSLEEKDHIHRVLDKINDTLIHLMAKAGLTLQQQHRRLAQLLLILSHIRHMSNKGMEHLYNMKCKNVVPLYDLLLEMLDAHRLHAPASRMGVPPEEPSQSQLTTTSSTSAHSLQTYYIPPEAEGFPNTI
Assay: Competitive binding to the ER in rat uterine cytosol (RBA vs [3H]E2)
Settings: uterine cytosol (ERα), relative to E2
Param threshold (6%) applies to RBA; output yes when value >= threshold, no when value < threshold.

As a guide, the following entries are already answered.
                         structure_notation                             system_tested  class_name
0  CCOC(=O)[C@@H]1C[C@H]2[C@@H]3CCc4cc(O)ccc4[C@H]3CC[C@]2(C)[C@H]1O  ER in rat uterine cytosol (ERα) (Rattus norvegicus, UniProt P06211)         yes
1  CC(C)OC(=O)[C@@H]1C[C@H]2[C@@H]3CCc4cc(O)ccc4[C@H]3CC[C@]2(C)[C@H]1O  ER in rat uterine cytosol (ERα) (Rattus norvegicus, UniProt P06211)         yes
2  CCCCOC(=O)[C@@H]1C[C@H]2[C@@H]3CCc4cc(O)ccc4[C@H]3CC[C@]2(C)[C@H]1O  ER in rat uterine cytosol (ERα) (Rattus norvegicus, UniProt P06211)         yes

Qu. hey, is RBA for this one >= 6%? `C[C@]12CC[C@@H]3c4ccc(O)cc4CC[C@H]3[C@@H]1C[C@@H](C(=O)OCCF)[C@@H]2O`
Ans. yes

Qu. hey, is RBA for this one >= 6%? `C[C@]12CC[C@@H]3c4ccc(O)cc4CC[C@H]3[C@@H]1C[C@@H](C(=O)OCC(F)(F)F)[C@@H]2O`
Ans. yes

Qu. hey, is RBA for this one >= 6%? `COC(=O)[C@@H]1C[C@H]2[C@@H]3CCc4cc(O)ccc4[C@H]3CC[C@]2(C)[C@H]1O`
Ans. yes

Qu. hey, is RBA for this one >= 6%? `CCOC(=O)C[C@@H]1C[C@H]2[C@@H]3CCc4cc(O)ccc4[C@H]3CC[C@]2(C)[C@H]1O`
Ans. no

Qu. hey, is RBA for this one >= 6%? `COC(=O)CC[C@@H]1C[C@H]2[C@@H]3CCc4cc(O)ccc4[C@H]3CC[C@]2(C)[C@H]1O`
Ans. no
